# Tested on: K562
# Test: NCI tumour cell line growth inhibition, 48 h
The source made the active and inactive calls. Rule as the data show it: active = GI50 up to about 1.1 µM and inactive = higher.
Measurement Name: GI50

Compound	Measurement Name	Reported
CCCCn1/c(=N/C(=S)N(C)C)ss/c1=N\C(=S)N(C)C	GI50	> 100 µM (inactive)
COC1CCC(O)C(CO)O1 (centres undefined)	GI50	11.2 µM (inactive)
CN(C)CCCNC(CC#N)CCC#N (centres undefined)	GI50	> 10 µM (inactive)
Cc1ccsc1/C=N/Nc1nc2ccccc2s1	GI50	14.7 µM (inactive)
c1cncc(CNCCN2CCNCC2)c1	GI50	> 100 µM (inactive)
c1ccc2c(c1)SP1Sc3ccccc3P21 (centres undefined)	GI50	> 87.3 µM (inactive)
CN(C)C(=S)N1C(=S)N(c2ccccc2)C(=N/c2ccccc2)/C1=N\c1ccccc1	GI50	> 100 µM (inactive)
CON(C)C(=O)C(C)NC(=O)OC(C)(C)C (centres undefined)	GI50	> 100 µM (inactive)
CC(C)(C)OC(=O)N1CC(COS(C)(=O)=O)c2ccc(O)cc21 (centres undefined)	GI50	2.3 µM (inactive)
C=C1C[C@@H](O)[C@@H](Br)C(C)(C)[C@]12CCC(C)(Cl)C(Br)C2 (some centres undefined)	GI50	53.5 µM (inactive)
[O-][S+](C(c1ccccc1)=P(c1ccccc1)(c1ccccc1)c1ccccc1)c1ccc(Cl)cc1 (centres undefined)	GI50	14.2 µM (inactive)
C#CCSc1nc(-c2ccco2)n[nH]1	GI50	> 100 µM (inactive)
C#CCOCC12C=CC(O1)C1C(=O)OCC12 (centres undefined)	GI50	> 100 µM (inactive)
N#Cc1c(-c2ccccc2)[nH]c(=O)n(C2OC(CO)C(O)C(O)C2O)c1=O (centres undefined)	GI50	> 100 µM (inactive)
Cc1nn2c(C(=O)N/N=C/c3ccc([N+](=O)[O-])cc3)c(C)nc2s1	GI50	94.2 µM (inactive)
C/C(=N\Nc1nc2ccccc2[nH]1)c1cnccn1	GI50	1.23 µM (inactive)
Nn1c(Cc2ccc([N+](=O)[O-])cc2)n[nH]c1=O	GI50	> 100 µM (inactive)
O=C1NCN(c2ccccc2)C12CCN(CC1COc3ccccc3O1)CC2 (centres undefined)	GI50	> 100 µM (inactive)
CC(=O)O[C@H]1C(=O)[C@@]2(C)[C@H]([C@H](OC(=O)c3ccccc3)[C@]3(O)C[C@H](OC(=O)[C@H](O)[C@@H](NC(=O)OC(C)(C)C)c4ccco4)C(C)=C1C3(C)C)[C@]1(OC(C)=O)CO[C@@H]1C[C@@H]2O	GI50	< 0.005 µM (active)

* * *

# Test system: OVCAR-3
# Test: NCI tumour cell line growth inhibition, 48 h
Calls of active or inactive are those of the source. Cut-off read from the data, not from the text of the source: active = GI50 up to about 1.1 µM and inactive = higher.
Outcomes: active, inactive

Molecule	System Name	Class
CCOC(=O)c1[nH]c2cccc3c2c1CC(Br)C3=O (stereo not given)	OVCAR-3	inactive
O=C(OCN1C(=O)C2C3C=CC(C2C1=O)C1C2C(=O)N(COC(=O)C4CCCN4)C(=O)C2C31)C1CCCN1 (stereo not given)	OVCAR-3	inactive
Cc1cc(C)nc(NS(=O)(=O)c2ccc(Nc3c4ccccc4nc4ccc(C(=O)Nc5ccc(S(N)(=O)=O)cc5)cc34)cc2)n1	OVCAR-3	inactive
OC1CN2Cc3cc4c(cc3[C@]13C=C[C@@H](O)CC23)OCO4 (stereo not given in full)	OVCAR-3	inactive
C1=C2/CC[C@H](Sc3ccccc3)C2C2(CCCCC/1)OCCO2 (stereo not given in full)	OVCAR-3	inactive
COC(=O)C1=CSC2(S1)C(C(=O)OC)=CSc1c2ss/c1=N\c1ccccc1 (stereo not given)	OVCAR-3	inactive
C[C@]1(S(=O)(=O)c2ccccc2)C[C@H]2N(Cc3ccccc3)[C@@H]1CCC21OCCO1	OVCAR-3	inactive
O=C(O)C12CCCC(CCC1)C2	OVCAR-3	inactive
COc1cc([C@@H]2c3cc4c(c(O)c3C[C@H]3COC(=O)[C@@H]32)OCO4)cc(OC)c1OC	OVCAR-3	active
C=CC1=C(C)c2cc3[nH]c(cc4nc(cc5[nH]c(cc1n2)c(C)c5CCC(=O)N(CC)CC)C(CCC(=O)N(CC)CC)=C4C)c(C)c3C=C	OVCAR-3	inactive
CNC(=S)N(C1CCCCC1)C1CCCCC1	OVCAR-3	inactive
CC1(O)C(=O)OC2CC([C@]3(O)CCC4[C@@H]5C[C@H]6O[C@]67[C@@H](O)C=CC(=O)[C@]7(C)C5CC[C@@]43C)C1(C)C2 (stereo not given in full)	OVCAR-3	inactive
CO/C=C(/C(=O)OC)c1ccccc1[C@H]1C[C@@H]1c1ccccc1	OVCAR-3	inactive
COc1ccc(/C=C2\CCC(CNc3ccc(OC)cc3)C2=O)cc1 (stereo not given)	OVCAR-3	inactive
O=[N+]([O-])c1ccc(/C=C/c2csnn2)cc1	OVCAR-3	inactive
Nc1nc(Cl)c(N)c(NCC2(CO)CC(OCc3ccccc3)C2)n1 (stereo not given)	OVCAR-3	inactive
Clc1ccc(-c2nnc(C34CC5CC(CC(C5)C3)C4)o2)cc1	OVCAR-3	inactive
Nc1ccc(OCCCc2c(-c3ccccc3)[nH]c(N)nc2=O)cc1	OVCAR-3	inactive
CNC(=O)CNC(=O)CCC(=O)N(C)C	OVCAR-3	inactive
CC1=CC(=O)c2[nH]c3ccccc3c2C1=O	OVCAR-3	inactive
O=c1[nH]c(=O)n(C2COC(CO)C2O)cc1F (stereo not given)	OVCAR-3	inactive
O=C(O)CC(NC(=O)/C(=C/c1ccccc1)NC(=O)c1ccccc1)C(=O)O (stereo not given)	OVCAR-3	inactive
O=C1NC(=O)C(C(=O)C(=O)Nc2ccc(Cl)cc2Cl)C(=O)N1	OVCAR-3	inactive
O=c1c2cccnc2ncn1CCCN1CCCC1	OVCAR-3	inactive
NNC(=O)c1cc(Cl)ccc1NC(=O)C12CC3CC(CC(C3)C1)C2	OVCAR-3	inactive
Cc1ccc(S(=O)(=O)N(/N=C(\N)Oc2ccc(Cl)cc2)C(=N)Oc2ccc(Cl)cc2)cc1	OVCAR-3	inactive
COC(=O)c1c(CC(Cc2ccc3c(c2)CCCC3)C(=O)OC)ccc2c1CCCC2 (stereo not given)	OVCAR-3	inactive
Fc1cc(C2=C[C@H](c3ccc4c(c3)OCO4)NC(=S)N2)c(Cl)cc1Cl	OVCAR-3	inactive
COC1=CC(=O)C(O)=C(CC2(C)C(C)CCC3(C)C2CCCC3(C)C)C1=O (stereo not given)	OVCAR-3	inactive
O=C(O)c1cc(-c2ccc3c(O)c(O)ccc3c2)ccc1O	OVCAR-3	inactive
